Test: Half life of compound was determined in squirrel monkey
Format: ADME
Settings: in vivo
half-life for assorted compounds

>  <COMPOUND>
COc1ccc([C@H](Cc2ccncc2)c2ccccc2)cc1OC1CCCC1 [CDP840]

>  <METRIC_NAME>
half-life

>  <VAL>
< 1 h

$$$$

Consider now this further compound.
Query string: For the compound shown here, [O-][n+]1ccc(CC(c2ccc(C(O)(C(F)(F)F)C(F)(F)F)cc2)c2ccc(OC(F)F)c(OC(F)F)c2)cc1 (configuration not stated) , give the reported half-life.
Result string: 48 h

* * *

Test: Half-life period was determined
Format: ADME
This section presents molecules with their documented half-life values.
Report field: quantity (unit follows the number).

>  <MOLECULE>
CC(C)(O)c1ccc(C(Cc2cc[n+]([O-])cc2)c2ccc(OC(F)F)c(OC(F)F)c2)cc1 (configuration not stated)

>  <half-life>
1 h

$$$$

Turning now to a further record.
Query string: Please look up its half-life: [O-][n+]1ccc(CC(c2ccc(C3(O)CCC3)cc2)c2ccc(OC(F)F)c(OC(F)F)c2)cc1 (configuration not stated)
Result string: 2 h

* * *

Molecular target: 3',5'-cyclic-AMP phosphodiesterase 4A (Homo sapiens, UniProt P27815)
Sequence (P27815 whole entry): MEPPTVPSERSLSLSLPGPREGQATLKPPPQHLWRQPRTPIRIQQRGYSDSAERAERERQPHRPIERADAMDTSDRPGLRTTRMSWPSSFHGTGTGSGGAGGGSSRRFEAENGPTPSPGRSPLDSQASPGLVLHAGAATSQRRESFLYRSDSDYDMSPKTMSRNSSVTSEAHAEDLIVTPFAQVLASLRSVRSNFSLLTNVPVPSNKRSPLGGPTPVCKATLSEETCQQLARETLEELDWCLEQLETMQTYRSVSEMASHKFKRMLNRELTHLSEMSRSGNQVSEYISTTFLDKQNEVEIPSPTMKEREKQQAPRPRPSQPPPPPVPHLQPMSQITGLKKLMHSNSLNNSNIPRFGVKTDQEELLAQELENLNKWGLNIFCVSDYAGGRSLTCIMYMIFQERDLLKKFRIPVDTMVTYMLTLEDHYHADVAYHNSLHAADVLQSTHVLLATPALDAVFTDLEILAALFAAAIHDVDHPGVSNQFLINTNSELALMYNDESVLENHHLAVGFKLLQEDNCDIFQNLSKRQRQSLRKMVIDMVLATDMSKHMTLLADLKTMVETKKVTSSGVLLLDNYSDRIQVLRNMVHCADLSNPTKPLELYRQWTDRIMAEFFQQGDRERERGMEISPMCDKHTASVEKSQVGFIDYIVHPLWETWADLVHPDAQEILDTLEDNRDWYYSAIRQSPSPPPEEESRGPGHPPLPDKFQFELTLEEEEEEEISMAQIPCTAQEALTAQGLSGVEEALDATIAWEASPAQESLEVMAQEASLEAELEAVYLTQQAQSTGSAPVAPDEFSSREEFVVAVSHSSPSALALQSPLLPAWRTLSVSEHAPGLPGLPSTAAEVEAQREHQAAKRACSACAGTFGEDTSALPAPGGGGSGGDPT
Assay: Inhibitory concentration of compound against LPS- induced TNF-alpha production in whole human blood assay
Format: functional, tissue-based
Overview of recorded pIC50 for various compounds
Value format note: pIC50 is -log10 of concentration (mol/L); just state the number.

Example entries begin here.
>  <COMPOUND>
CC(O)c1ccc(C(Cc2cc[n+]([O-])cc2)c2ccc(OC(F)F)c(OC(F)F)c2)cc1 (centres undefined)

>  <MEASURED_TARGET>
3',5'-cyclic-AMP phosphodiesterase 4A (Homo sapiens, UniProt P27815)

>  <pIC50>
6.29

$$$$
>  <COMPOUND>
[O-][n+]1ccc(CC(c2ccc(COc3ccc(F)cc3)cc2)c2ccc(OC(F)F)c(OC(F)F)c2)cc1 (centres undefined)

>  <MEASURED_TARGET>
3',5'-cyclic-AMP phosphodiesterase 4A (Homo sapiens, UniProt P27815)

>  <pIC50>
5.72

$$$$
>  <COMPOUND>
[O-][n+]1ccc(CC(c2ccc(C3(O)CCC3)cc2)c2ccc(OC(F)F)c(OC(F)F)c2)cc1 (centres undefined)

>  <MEASURED_TARGET>
3',5'-cyclic-AMP phosphodiesterase 4A (Homo sapiens, UniProt P27815)

>  <pIC50>
6.42

$$$$
>  <COMPOUND>
CN(C)C(=O)c1ccc(C(Cc2cc[n+]([O-])cc2)c2ccc(OC(F)F)c(OC(F)F)c2)cc1 (centres undefined)

>  <MEASURED_TARGET>
3',5'-cyclic-AMP phosphodiesterase 4A (Homo sapiens, UniProt P27815)

>  <pIC50>
6.00

$$$$
>  <COMPOUND>
[O-][n+]1ccc(CC(c2ccc(C(O)(C(F)(F)F)C(F)(F)F)cc2)c2ccc(OC(F)F)c(OC(F)F)c2)cc1 (centres undefined)

>  <MEASURED_TARGET>
3',5'-cyclic-AMP phosphodiesterase 4A (Homo sapiens, UniProt P27815)

>  <pIC50>
6.17

$$$$

Query string: Quick one: pIC50 of [O-][n+]1ccc(CC(c2ccc(C3(O)CC3)cc2)c2ccc(OC(F)F)c(OC(F)F)c2)cc1 (centres undefined) ?
Result string: 5.77

Query string: Please give the measured pIC50 for this compound: "COc1ccc([C@H](Cc2ccncc2)c2ccccc2)cc1OC1CCCC1"
Result string: 4.80

Query string: GET /values?readout=pIC50&item= COc1ccc(C(Cc2ccncc2)c2ccc(Cl)cc2)cc1OC1CCCC1 (centres undefined)
Result string: 4.92

Query string: Dear colleague, I am looking for the recorded pIC50 of the following compound: FC(F)Oc1ccc(C(Cc2ccncc2)c2ccc(Cl)cc2)cc1OC1CCCC1 (centres undefined)
Result string: 5.06
